Recorded pIC50 by entry
tested on: U-251; assay: Cytotoxicity against human U251 cells assessed as inhibition of proliferation incubated for 72 hrs by MTT assay; type: functional, cell-based; settings: U-251, 72 h
pIC50: −log10 of the molar value.
observed-property: pIC50

cpd-smiles: COc1cc(C(=O)c2nc(OC(C)C)c3ccccc3n2)cc(OC)c1OC
observed-measurement: < 4.00
//
cpd-smiles: COc1cc(C(=O)c2nc(Cl)c3ccccc3n2)cc(OC)c1OC
observed-measurement: < 4.00
//
cpd-smiles: COc1cc(C(=O)c2nc3ccccc3c(=O)n2C)cc(OC)c1OC
observed-measurement: < 4.00
